FYI, the data here is from ChEMBL document CHEMBL1141362.

assay: Metabolic stability in rat liver microsomes after 30 mins; type: ADME, Microsome; conditions: read-out: Stability
Form field: remaining at 0.5 h (one value per entry).
Please reply with the bare figure in % and do not write the unit itself.

Sample answers from the record:
| substance.smiles | unit.symbol | remaining at 0.5 h |
| --- | --- | --- |
| Cc1c(S(=O)(=O)Nc2cc(Br)ccc2C(=O)N2CCCCC2)cnn1-c1ccccc1 | % | 30 |
| O=C(c1ccc(Br)cc1NS(=O)(=O)c1sc(Cl)cc1Br)N1CCCCC1 | % | 68 |
| COC(=O)c1sc(C(F)(F)F)c(-c2ccccc2)c1S(=O)(=O)Nc1cc(Br)ccc1C(=O)N1CCCCC1 | % | 0 |
| O=C(c1ccc(Br)cc1NS(=O)(=O)c1c(Cl)nc2sccn12)N1CCCCC1 | % | 100 |

Moving on to the next molecule.
Request: Can you share its remaining at 0.5 h? I mean this molecule: `Cc1nc(-c2ccc(S(=O)(=O)Nc3cc(Br)ccc3C(=O)N3CCCCC3)s2)cs1`
Result: 47
